Catalogue of compounds with associated pIC50
Target: Prostaglandin G/H synthase 1 (Mus musculus, UniProt P22437)
Sequence (P22437 whole entry): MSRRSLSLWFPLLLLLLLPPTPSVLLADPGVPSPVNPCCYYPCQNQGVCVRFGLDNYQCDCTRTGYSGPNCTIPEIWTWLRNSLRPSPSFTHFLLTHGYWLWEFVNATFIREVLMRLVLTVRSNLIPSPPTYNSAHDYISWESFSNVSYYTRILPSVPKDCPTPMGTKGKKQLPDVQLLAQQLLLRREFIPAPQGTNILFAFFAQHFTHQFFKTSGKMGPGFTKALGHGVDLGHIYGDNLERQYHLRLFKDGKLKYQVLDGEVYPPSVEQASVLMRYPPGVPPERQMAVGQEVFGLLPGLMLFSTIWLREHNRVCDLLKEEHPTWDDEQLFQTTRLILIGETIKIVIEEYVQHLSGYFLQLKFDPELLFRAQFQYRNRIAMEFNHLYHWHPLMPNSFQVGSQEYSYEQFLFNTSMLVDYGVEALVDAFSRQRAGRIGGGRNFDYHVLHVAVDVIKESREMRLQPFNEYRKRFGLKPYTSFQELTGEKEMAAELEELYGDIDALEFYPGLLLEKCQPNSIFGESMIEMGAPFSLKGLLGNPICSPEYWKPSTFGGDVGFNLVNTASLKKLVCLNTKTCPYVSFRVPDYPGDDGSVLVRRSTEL
Experiment: Inhibition of COX-1 in mouse J774 cells assessed as inhibition of PEG2 production using arachidonic acid as substrate pretreated for 15 mins followed by substrate addition measured after 30 mins by radioimmuno assay
Type: cell-based
pIC50: −log10 of the molar value.

compound	readoutValue
CCC[S+]([O-])CCc1cc(-c2ccc(S(C)(=O)=O)cc2)n(-c2ccc(F)cc2)c1C (stereo not drawn)	< 5.00
CCCSCCc1cc(-c2ccc(S(C)(=O)=O)cc2)n(-c2ccc(F)cc2)c1C	< 5.00

# context switch: different compound, same pIC50
Request: # pIC50 lookup, item CCCSCCc1cc(-c2ccc(S(C)(=O)=O)cc2)n(-c2cccc(F)c2)c1C
Response: < 5.00

---

Catalogue of compounds with associated Activity
system: Rattus norvegicus; test: Anti-inflammatory activity in rat assessed as effect on carrageenan-induced hyperalgesia by measuring paw pressure tolerance at 20 mg/kg, po administered as single dose preincubated with carrageenan for 4 hrs and followed by compound treatment and measured after 60 mins by paw-pressure test (reference value: 37.2 +/- 3.5 g); format: functional
Write down the numeric answer in g and omit the unit.

compound	readoutValue
CCC[S+]([O-])CCc1cc(-c2ccc(S(C)(=O)=O)cc2)n(-c2ccc(F)cc2)c1C (centres undefined)	42.5
CCCSCCc1cc(-c2ccc(S(C)(=O)=O)cc2)n(-c2ccccc2)c1C	40.3
CCCSCCc1cc(-c2ccc(S(C)(=O)=O)cc2)n(-c2cccc(F)c2)c1C	38.8

Request: # Activity lookup, item CCCSCCc1cc(-c2ccc(S(C)(=O)=O)cc2)n(-c2ccc(F)cc2)c1C
Response: 50.4

---

Catalogue of compounds with associated Activity
system: Mus musculus; test: Antinociceptive activity in Swiss albino mouse model of acetic-acid-induced writhing assessed as inhibition of writhing numbers at 20 mg/kg, po measured starting 5 mins post acetic acid challenge for 10 mins (reference value: 30.5 +/- 3.7)
I'd appreciate a reply containing only the number, no unit.

// worked examples, Activity included
compound	Activity
CCCSCCc1cc(-c2ccc(S(C)(=O)=O)cc2)n(-c2ccccc2)c1C	25.9
CCCSCCc1cc(-c2ccc(S(C)(=O)=O)cc2)n(-c2ccc(F)cc2)c1C	17.4
CCC[S+]([O-])CCc1cc(-c2ccc(S(C)(=O)=O)cc2)n(-c2ccc(F)cc2)c1C (centres undefined)	23.4

# context switch: different compound, same Activity
Request: # Activity lookup, item CCCSCCc1cc(-c2ccc(S(C)(=O)=O)cc2)n(-c2cccc(F)c2)c1C
Response: 23.4

---

Target: Prostaglandin G/H synthase 2 (Mus musculus, UniProt Q05769)
Sequence (Q05769 whole entry): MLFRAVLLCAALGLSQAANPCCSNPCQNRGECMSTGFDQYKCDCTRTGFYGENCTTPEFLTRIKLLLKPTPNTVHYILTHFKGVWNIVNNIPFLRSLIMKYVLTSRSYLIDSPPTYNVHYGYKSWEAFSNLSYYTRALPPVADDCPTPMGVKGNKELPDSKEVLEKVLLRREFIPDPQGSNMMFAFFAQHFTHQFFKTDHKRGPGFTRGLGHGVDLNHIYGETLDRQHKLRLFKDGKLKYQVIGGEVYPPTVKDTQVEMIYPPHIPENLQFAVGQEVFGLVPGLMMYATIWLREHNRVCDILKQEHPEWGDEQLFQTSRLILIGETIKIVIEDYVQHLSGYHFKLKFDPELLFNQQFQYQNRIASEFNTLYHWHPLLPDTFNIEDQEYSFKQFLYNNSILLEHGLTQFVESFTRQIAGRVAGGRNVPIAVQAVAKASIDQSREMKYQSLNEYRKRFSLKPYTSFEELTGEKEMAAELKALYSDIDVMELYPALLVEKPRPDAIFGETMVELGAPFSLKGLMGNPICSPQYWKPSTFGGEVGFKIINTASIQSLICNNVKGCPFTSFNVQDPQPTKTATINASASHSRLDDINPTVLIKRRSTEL
Experiment: Inhibition of COX-2 in LPS-induced mouse J774 cells assessed as inhibition of PEG2 production after 24 hrs by radioimmuno assay
Assay type: cell-based
quantity: IC50 (nM)

// worked examples, IC50 included
compound	quantity	readoutValue
CCCS(=O)(=O)CCc1cc(-c2ccc(S(C)(=O)=O)cc2)n(-c2ccc(F)cc2)c1C	IC50	44
CCCSCCc1cc(-c2ccc(S(C)(=O)=O)cc2)n(-c2ccc(F)cc2)c1C	IC50	11
CCC[S+]([O-])CCc1cc(-c2ccc(S(C)(=O)=O)cc2)n(-c2ccc(F)cc2)c1C (configuration not stated)	IC50	40

1. CCCS(=O)(=O)CCc1cc(-c2ccc(S(C)(=O)=O)cc2)n(-c2ccccc2)c1C
2. CCC[S+]([O-])CCc1cc(-c2ccc(S(C)(=O)=O)cc2)n(-c2ccccc2)c1C (configuration not stated)
3. CCCSCCc1cc(-c2ccc(S(C)(=O)=O)cc2)n(-c2ccccc2)c1C
4. CCCSCCc1cc(-c2ccc(S(C)(=O)=O)cc2)n(-c2cccc(F)c2)c1C
Request: Please list these compounds in decreasing order of IC50. Write the labels in rank order as requested.
Response: 4, 2, 1, 3

---

tested on: Mus musculus; assay: Antinociceptive activity in Swiss albino mouse model of acetic-acid-induced writhing assessed as inhibition of writhing numbers at 10 mg/kg, po measured starting 5 mins post acetic acid challenge for 10 mins (reference value: 30.5 +/- 3.7)
quantity: Activity
I'd appreciate a reply containing only the number, no unit.

molecule	Activity
CCCSCCc1cc(-c2ccc(S(C)(=O)=O)cc2)n(-c2ccc(F)cc2)c1C	28.7
CCCSCCc1cc(-c2ccc(S(C)(=O)=O)cc2)n(-c2ccccc2)c1C	32.6

Request: Quick check: Activity on Mus musculus, item CCCSCCc1cc(-c2ccc(S(C)(=O)=O)cc2)n(-c2cccc(F)c2)c1C ?
Response: 30.3

Request: Quick check: Activity on Mus musculus, item CCC[S+]([O-])CCc1cc(-c2ccc(S(C)(=O)=O)cc2)n(-c2ccc(F)cc2)c1C (centres undefined) ?
Response: 28.8

---

tested on: Rattus norvegicus; assay: Antiinflammatory activity in rat assessed as effect on carrageenan-induced paw edema by measuring paw volume at 20 mg/kg, po administered as single dose preincubated with carrageenan for 4 hrs and followed by compound treatment and measured after 30 mins by plethysmometer (reference value: 2.78 +/- 0.09 ml); assay type: functional
Catalogue of molecules with associated Activity
Write down the numeric answer in mL and omit the unit.

// worked examples, Activity included
molecule	readoutValue
CCC[S+]([O-])CCc1cc(-c2ccc(S(C)(=O)=O)cc2)n(-c2ccc(F)cc2)c1C (centres undefined)	1.55
CCCSCCc1cc(-c2ccc(S(C)(=O)=O)cc2)n(-c2ccccc2)c1C	1.69
CCCSCCc1cc(-c2ccc(S(C)(=O)=O)cc2)n(-c2ccc(F)cc2)c1C	1.75

# context switch: different molecule, same Activity
Request: # Activity lookup, item CCCSCCc1cc(-c2ccc(S(C)(=O)=O)cc2)n(-c2cccc(F)c2)c1C
Response: 1.74
